Reference source for all entries: patent US6686382B2

Structures can show the parent of a compound that is named as a salt.
Recorded melting point, one value per entry.

compound | melting point
Cc1cc(C)c(NC(=O)c2sccc2S(=O)(=O)Nc2onc(C)c2Cl)c(-c2ncco2)c1 | 176 to 178 °C
Cc1cc(C)c(NC(=O)c2sccc2S(=O)(=O)Nc2onc(C)c2Cl)c(C(C)O)c1 (stereo not drawn) (as salt: Na) | 147 to 154 °C
Cc1cc(C)c(OS(=O)(=O)N(C)C)c(C)c1NC(=O)c1sccc1S(=O)(=O)Nc1onc(C)c1Cl | 169 to 174 °C
